experiment: yeast growth modulation, basal conditions, primary screen, YJM789 clinical isolate, OD600, 24 h (AID 1089);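 also: growth of clinical yeast isolate S. cerevisiae YJM 789 seeded 1000 cells per well; test concentration not given here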; conditions: S. cerevisiae YJM789 growth, higher = more signal, called active from +8 up or from −8 down
Entry flag: Met if z-score reaches -0.5; Not met if it does not.

{"columns": ["compound", "assigned_category"],
 "data": [
  ["C=C(CCCC)/C(=C/C[C@@H](OC(=O)c1ccncc1)c1ccc(CO)o1)c1cnc2ccccc2c1", "Met"],
  ["CCC(=O)[C@]12O[C@@]3([C@@H]4C(=O)OCC[C@@H]41)N(CC)C(C)=C(C(=O)OC)[C@@H](c1ccccc1)N3C2=O", "Not met"],
  ["CCOC(=O)[C@H]1C/C=C/C[C@H](C(=O)OCC)C(=O)O[C@H]2[C@@H](OC)O[C@H](CO)[C@@H](OC(=O)Nc3ccc(Br)cc3)[C@@H]2OC1=O", "Met"],
  ["CCN1C(C)=C(C(=O)OC)[C@@H](c2ccccc2)N2C(=O)[C@@]3(C(=O)OC)O[C@@]12[C@@H]1C(=O)CCC[C@@H]13", "Met"],
  ["O=C1OCCC/C=C\\[C@H]2OC34C=CCN(CCN5CCOCC5)C(=O)[C@H]3N(CCCCCO)C(=O)[C@@H]4C12 (some centres undefined)", "Met"],
  ["CO[C@H]1COC(=O)[C@H](C)NC(=O)CC=C[C@@H](C)[C@H](NS(=O)(=O)c2ccc(C)cc2)COC(=O)[C@@H](OCc2ccccc2)C=C[C@@H]1C", "Met"],
  ["Cc1ccc(S[C@]2(C(=O)O)CC(=O)N(Cc3cc(C(F)(F)F)cc(C(F)(F)F)c3)[C@@H]2c2ccc(CO)cc2I)cc1", "Met"],
  ["CC(C)(C)OC(=O)CC[C@@]1(C(=O)NCc2ccccc2)N=C(c2ccc(OCCCO)cc2)O[C@@H]1c1ccccc1", "Not met"],
  ["O=C1C[C@@](C(=O)NC2CC2)(c2ccc([N+](=O)[O-])cc2)[C@@H](c2ccc(CO)cc2I)N1CC12CC3CC(CC(C3)C1)C2", "Met"],
  ["COCCOC(=O)N1C(=O)[C@@]2(c3cc(C#CCCO)ccc31)[C@H](c1ccc(O)cc1)N1[C@H](c3ccccc3)[C@H](c3ccccc3)OC(=O)[C@H]1[C@@H]2C(=O)Nc1nc2ccccc2s1", "Met"],
  ["CC(C)[C@H]1NC(=O)[C@@]23C(=O)N[C@@H](Cc4ccccc4)C2[C@H](C)[C@@]2(C)O[C@H]2C3/C=C/C/C=C\\CNC(=O)[C@H](C)NC1=O (some centres undefined)", "Met"],
  ["CC(C)N1CC=CC23O[C@@H]4/C=C\\CCCOC(=O)C4[C@H]2C(=O)N(CCCCCO)[C@@H]3C1=O (some centres undefined)", "Not met"],
  ["COc1cc(CO)cc(I)c1O[C@H]1C=C(C(=O)NCCO)C[C@@H](NCCc2c[nH]c3ccccc23)[C@@H]1O", "Met"],
  ["C=CC[C@@]1(C(=O)NCC(O)CO)N=C(c2ccc(OCCCO)cc2)O[C@@H]1c1ccccc1CN=[N+]=[N-] (some centres undefined)", "Not met"]
]}

----------
assay: MM1S cell viability effects, profiling panel, calcein-AM fluorescence, 48 h, basal (AID 1165); details: higher = more signal;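 also: viability of MM1S multiple myeloma cells under basal unstimulated conditions; test concentration not given here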
Entry flag: YES if z-score reaches -0.5; NO if it does not.

{"columns": ["record_smiles", "assigned_category"],
 "data": [
  ["COCCOC(=O)N1C(=O)[C@@]2(c3cc(C#CC4=CCCCC4)ccc31)[C@H](C(=O)NC[C@H](O)c1ccccc1)[C@H]1C(=O)O[C@H](c3ccccc3)[C@H](c3ccccc3)N1[C@@H]2c1ccc(OCCO)cc1", "NO"],
  ["CO[C@H]1COC(=O)CC=C[C@H](C)[C@@H](OC)COC(=O)CC=C[C@@H]1C", "YES"],
  ["COc1cc2c(cc1OC)CN(C(=O)[C@H]1[C@@H]3C(=O)O[C@@H](c4ccccc4)[C@@H](c4ccccc4)N3[C@@H](c3ccccc3OCCO)[C@]13C(=O)Nc1ccc(C#CC4(O)CCCCCC4)cc13)CC2", "NO"],
  ["CCCNC(=O)[C@@H]1c2ccccc2C(=O)N(C2CCCCC2)[C@H]1c1ccc(CO)cc1", "NO"],
  ["O=C(NCC(F)(F)F)[C@@H]1c2ccccc2C(=O)N(Cc2ccccc2Cl)[C@H]1c1ccc(CO)cc1", "YES"],
  ["COC(=O)C(CC#Cc1ccc2c(c1)[C@]1(C(=O)N2)[C@H](C(=O)N2CCCCCCC2)[C@H]2C(=O)O[C@H](c3ccccc3)[C@H](c3ccccc3)N2[C@@H]1c1ccc(O)cc1)C(=O)OC", "NO"],
  ["C=CC[C@]1(C(=O)O)N=C(c2ccc(OCCCO)cc2)O[C@H]1c1ccccc1N=[N+]=[N-]", "NO"],
  ["C[N+](C)(C)CCCCNC(=O)[C@H]1C[C@H]2C(=O)NCC(=O)N2[C@H]1c1cccc(OCCO)c1", "YES"],
  ["CCOC(=O)C[C@H]1[C@H](OC(=O)Cc2ccc3c(c2)OCO3)[C@@H](NC(=O)CC(C)C)c2cc(OCCCO)ccc2N1C(=O)c1ccccc1", "YES"],
  ["O=C(NCc1ccccc1)c1ccc(Br)cc1[N+](=O)[O-]", "YES"],
  ["NC(=O)NCC#Cc1ccc2c(c1)[C@]1(C(=O)N2)[C@H](C(=O)N2CCCCCCC2)[C@H]2C(=O)O[C@H](c3ccccc3)[C@H](c3ccccc3)N2[C@@H]1c1ccccc1OCCO", "NO"],
  ["CC(C)[Si](OCCCNS(=O)(=O)c1ccc(Br)cc1)(C(C)C)C(C)C", "NO"],
  ["COC(=O)Cn1c(C(=O)N2CCCC2)cc2c1C[C@H]1CN(C(=O)c3ccccc3)[C@@](Cc3ccc(OC)cc3)(C(=O)OC)[C@@H]21", "NO"],
  ["COC(=O)[C@@]1(Cc2ccc(OC)cc2)[C@H]2c3cc(C(=O)N(C)C)n(Cc4ccc(C)c(F)c4F)c3C[C@H]2CN1C(=O)c1ccccc1", "NO"]
]}

----------
Measured composite z-score of individual entries
target: Fibroblast growth factor 2 (Homo sapiens) (UniProt P09038); assay: FGF2 binders on small-molecule microarrays, primary screen, biochemical, small-molecule microarray, 635/667 nm fluorescence (AID 1133); conditions: small-molecule microarray binding, FGF2, fluorescence 635/667; higher = more signal
Sequence (P09038 whole entry, looked up): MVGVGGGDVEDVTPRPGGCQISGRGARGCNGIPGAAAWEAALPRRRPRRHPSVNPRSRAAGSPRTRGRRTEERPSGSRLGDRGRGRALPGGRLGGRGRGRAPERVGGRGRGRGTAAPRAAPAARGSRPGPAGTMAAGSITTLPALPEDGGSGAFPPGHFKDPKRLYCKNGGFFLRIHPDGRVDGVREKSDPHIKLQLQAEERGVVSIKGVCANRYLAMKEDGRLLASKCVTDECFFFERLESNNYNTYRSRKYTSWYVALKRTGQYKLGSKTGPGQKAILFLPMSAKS

{"columns": ["record_smiles", "composite z-score"],
 "data": [
  ["CO[C@H]1COC(=O)[C@@H](C)NC(=O)CC=C[C@@H](C)[C@H](OC)COC(=O)CC=C[C@@H]1C", 1.63],
  ["CO[C@@H]1COC(=O)[C@@H]2CCCN2C(=O)CC=C[C@@H](C)[C@H](OC)COC(=O)[C@@H]2CCCN2C(=O)CC=C[C@H]1C", 1.58],
  ["[N-]=[N+]=NCc1ccccc1C[C@@]1(C(=O)O)N=C(c2ccc(OCCCO)cc2)O[C@@H]1c1ccccc1N=[N+]=[N-]", -0.316],
  ["C=CCOC(=O)[C@@H]1[C@H]2C(=O)O[C@H](c3ccccc3)[C@H](c3ccccc3)N2[C@H](c2ccc(OCCOC(=O)[C@H]3C[C@H]4C(=O)N5CCC[C@H]5C(=O)N4[C@H]3c3ccc(O)cc3)cc2)[C@@]12C(=O)Nc1ccccc12", 1.58],
  ["O=C1c2ccccc2[C@@]2(Cc3ccccc3N(CC(F)(F)F)C2=O)[C@H](c2ccc(CO)cc2)N1C1CCCCC1", 1.06],
  ["CCCN1C(=O)[C@@]2(CCS(=O)(=O)c3ccccc3)N=C(c3ccc(OCCCO)cc3)O[C@H]2c2ccccc21", 0.961]
]}

----------
test: binders of probe aFGF2 on microarray, primary screen, stem cell growth factor project, biochemical, small-molecule microarray, fluorescence 635/667 (AID 1067); conditions: higher = more signal;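 also: measures binding of biotinylated aFGF2 protein to printed compounds on slides; z-score merges feature fluorescence and signal-to-noise across triplicate slides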
Measured composite z-score of individual entries
observable: composite z-score

{"columns": ["compound", "observable", "quantitative_result"],
 "data": [
  ["C=CCN(C(=O)C1N(c2ccc(CCO)cc2)C(=O)C2C(C(=O)O)C3C=CC21O3)C(C)(C)C (stereo not drawn)", "composite z-score", -0.243],
  ["Cc1ccc(S[C@]2(C(=O)NCCN3CCOCC3)CC(=O)N(C3Cc4ccccc4C3)[C@@H]2c2ccc(CO)cc2I)cc1", "composite z-score", -0.19],
  ["COCCOC(=O)N1C(=O)[C@@]2(c3cc(C#CC4=CCCCC4)ccc31)[C@H](C(=O)NC[C@H](O)c1ccccc1)[C@H]1C(=O)O[C@H](c3ccccc3)[C@H](c3ccccc3)N1[C@@H]2c1ccccc1OCCO", "composite z-score", 0.126]
]}

----------
assay: PSAC antagonists in infected red cells, primary screen, cell-based, P. falciparum Indochina, OD700, 18 h (AID 1157); conditions: P. falciparum Indochina infected erythrocytes, osmotic lysis OD700, 18 h; higher = more signal, called active from +8 up or from −8 down
Entry flag: Condition met if z-score reaches -2; Condition not met if it does not.

{"columns": ["record_smiles", "assigned_category"],
 "data": [
  ["C=C(CCCC)C(=O)CC[C@@H](OC(C)=O)c1ccccc1OCCO", "Condition met"],
  ["O=C(CS)NCCCCCNC(=O)[C@H]1C[C@H]2C(=O)N3CCC[C@H]3C(=O)N2[C@H]1c1ccc(O)cc1", "Condition met"],
  ["C[C@@H]1CC[C@H]2C(=O)N3CCC[C@H]3C(=O)N2[C@H]1c1ccc(Br)cc1", "Condition met"],
  ["O=[N+]([O-])c1ccc(C[n+]2ccc3ccc(O)cc3c2)o1", "Condition met"],
  ["COC(=O)C[C@H]1O[C@]2(C(=O)N(C)c3ccccc32)[C@@H](C)[C@@H]1[Si](C)(C)c1ccc(OC)cc1", "Condition not met"]
]}
